system: DU-145; assay: cells; assay type: functional, cell-based; conditions: Homo sapiens, DU-145, 72 h
IC50 reference
Value expressed in µM; do not type the unit.

Consider the worked cases shown below.
# molecule, study-target, endpoint-label, readout-unit, recorded-result
measured = [
    ("Cc1cccc(OS(=O)(=O)C2CC3OC2C(c2ccc(NC(=O)CCCCCCC(=O)O)cc2)=C3c2ccc(O)cc2)c1 (racemic)", "DU-145", "IC50", "µM", 52.4),
    ("Cc1cccc(OS(=O)(=O)C2CC3OC2C(c2ccc(NC(=O)CCCCCCC(=O)NO)cc2)=C3c2ccc(O)cc2)c1 (racemic)", "DU-145", "IC50", "µM", 32.2),
    ("O=C(O)CCCCCCC(=O)Nc1ccc(OS(=O)(=O)C2CC3OC2C(c2ccc(O)cc2)=C3c2ccc(O)cc2)cc1 (centres undefined)", "DU-145", "IC50", "µM", 34.8),
]

# next molecule below
Problem: For the record O=C(CCCCCCC(=O)Nc1ccc(C2=C(c3ccc(O)cc3)C3CC(S(=O)(=O)Oc4ccc(Br)cc4)C2O3)cc1)NO (racemic) , what value of IC50 is listed for DU-145?
Solution: 11.3

###

system: MCF7; assay: cells; assay type: functional, cell-based; details: Homo sapiens, MCF7, 72 h
endpoint-label: pIC50
Scale: negative log10 of molar concentration, which is what pIC50 denotes.

# compound, pIC50
measured = [
    ("O=C(O)CCCCCCC(=O)Nc1ccc(C2=C(c3ccc(O)cc3)C3CC(S(=O)(=O)Oc4ccccc4C(F)(F)F)C2O3)cc1 (racemic)", 4.58),
    ("O=C(O)CCCCCCC(=O)Nc1ccc(C2=C(c3ccc(O)cc3)C3CC(S(=O)(=O)Oc4ccccc4O)C2O3)cc1 (racemic)", 4.55),
    ("O=S(=O)(Oc1ccccc1)[C@H]1C[C@H]2O[C@@H]1C(c1ccc(O)cc1)=C2c1ccc(O)cc1 (relative stereo)", 4.68),
]

# next compound below
Problem: // returns reported pIC50 for input COC(=O)CCCCCCC(=O)Nc1cccc(OS(=O)(=O)C2CC3OC2C(c2ccc(O)cc2)=C3c2ccc(O)cc2)c1 (stereo not given)
Solution: 4.72

###

Biological target: Estrogen receptor (Homo sapiens)
Sequence (P03372 whole entry): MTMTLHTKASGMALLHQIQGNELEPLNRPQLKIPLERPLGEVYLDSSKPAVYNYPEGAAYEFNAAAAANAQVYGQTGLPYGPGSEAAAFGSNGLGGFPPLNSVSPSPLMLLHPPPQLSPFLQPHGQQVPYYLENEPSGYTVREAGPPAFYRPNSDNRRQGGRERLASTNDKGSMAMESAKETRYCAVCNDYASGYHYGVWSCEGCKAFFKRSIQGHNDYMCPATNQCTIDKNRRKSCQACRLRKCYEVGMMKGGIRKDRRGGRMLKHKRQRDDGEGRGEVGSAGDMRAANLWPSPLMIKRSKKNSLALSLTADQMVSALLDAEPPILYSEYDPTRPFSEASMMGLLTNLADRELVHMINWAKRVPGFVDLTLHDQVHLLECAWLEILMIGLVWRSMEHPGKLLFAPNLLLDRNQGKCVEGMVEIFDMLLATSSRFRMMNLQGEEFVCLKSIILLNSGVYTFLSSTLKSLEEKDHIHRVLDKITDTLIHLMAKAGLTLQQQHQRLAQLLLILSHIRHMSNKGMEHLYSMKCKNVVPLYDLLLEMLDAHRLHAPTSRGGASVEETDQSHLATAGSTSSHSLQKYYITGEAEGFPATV
Assay: Agonist activity at ER-alpha (unknown origin) transfected in HEK293T cells assessed as stimulation of transcriptional activity after 24 hrs by luciferase reporter gene assay
Type: cell-based, HEK-293T
pEC50 reference
Scale: negative log10 of molar concentration, which is what pEC50 denotes.

Consider the worked cases shown below.
# molecule, recorded-result
records = [
    ("O=C(O)CCCCCCC(=O)Nc1ccc(C2=C(c3ccc(O)cc3)C3CC(S(=O)(=O)Oc4ccc(O)cc4)C2O3)cc1 (racemic)", 5.62),
    ("Cc1cccc(C)c1OS(=O)(=O)C1CC2OC1C(c1ccc(NC(=O)CCCCCCC(=O)O)cc1)=C2c1ccc(O)cc1 (racemic)", 6.49),
    ("COc1ccccc1OS(=O)(=O)C1CC2OC1C(c1ccc(NC(=O)CCCCCCC(=O)O)cc1)=C2c1ccc(O)cc1 (racemic)", 7.80),
]

Problem: // returns reported pEC50 for input COc1cccc(OS(=O)(=O)C2CC3OC2C(c2ccc(NC(=O)CCCCCCC(=O)O)cc2)=C3c2ccc(O)cc2)c1 (racemic)
Solution: 5.94

###

target: Estrogen receptor beta (Homo sapiens); test: Agonist activity at ER-beta (unknown origin) transfected in HEK293T cells assessed as stimulation of transcriptional activity after 24 hrs by luciferase reporter gene assay
Sequence (Q92731 whole entry): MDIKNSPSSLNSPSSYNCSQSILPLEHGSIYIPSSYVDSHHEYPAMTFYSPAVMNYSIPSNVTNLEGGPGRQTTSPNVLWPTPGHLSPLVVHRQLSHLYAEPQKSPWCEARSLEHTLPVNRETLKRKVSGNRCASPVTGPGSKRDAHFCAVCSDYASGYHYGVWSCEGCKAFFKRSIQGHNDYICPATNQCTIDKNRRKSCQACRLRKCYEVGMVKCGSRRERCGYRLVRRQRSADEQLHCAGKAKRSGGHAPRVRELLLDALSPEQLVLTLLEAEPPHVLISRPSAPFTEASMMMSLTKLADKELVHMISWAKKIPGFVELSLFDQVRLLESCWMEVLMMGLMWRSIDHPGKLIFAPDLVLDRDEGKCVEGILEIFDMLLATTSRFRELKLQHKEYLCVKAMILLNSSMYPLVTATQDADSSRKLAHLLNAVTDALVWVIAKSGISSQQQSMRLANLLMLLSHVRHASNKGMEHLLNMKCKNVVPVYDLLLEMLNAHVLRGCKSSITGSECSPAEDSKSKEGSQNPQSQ
endpoint-label: pEC50
Scale: negative log10 of molar concentration, which is what pEC50 denotes.

Consider the worked cases shown below.
# compound, study-target, pEC50
records = [
    ("O=C(O)CCCCCCC(=O)Nc1ccc(C2=C(c3ccc(O)cc3)C3CC(S(=O)(=O)Oc4ccc(O)cc4)C2O3)cc1 (racemic)", "Estrogen receptor beta (Homo sapiens)", 4.87),
    ("O=C(O)CCCCCCC(=O)Nc1ccc(C2=C(c3ccc(O)cc3)C3CC(S(=O)(=O)Oc4cccc(O)c4)C2O3)cc1 (racemic)", "Estrogen receptor beta (Homo sapiens)", 5.09),
    ("Cc1cccc(OS(=O)(=O)C2CC3OC2C(c2ccc(NC(=O)CCCCCCC(=O)NO)cc2)=C3c2ccc(O)cc2)c1 (racemic)", "Estrogen receptor beta (Homo sapiens)", 7.27),
    ("COc1ccccc1OS(=O)(=O)C1CC2OC1C(c1ccc(NC(=O)CCCCCCC(=O)NO)cc1)=C2c1ccc(O)cc1 (racemic)", "Estrogen receptor beta (Homo sapiens)", 7.64),
    ("Cc1ccc(OS(=O)(=O)C2CC3OC2C(c2ccc(NC(=O)CCCCCCC(=O)O)cc2)=C3c2ccc(O)cc2)cc1 (racemic)", "Estrogen receptor beta (Homo sapiens)", 6.28),
    ("COc1ccccc1OS(=O)(=O)C1CC2OC1C(c1ccc(NC(=O)CCCCCCC(=O)O)cc1)=C2c1ccc(O)cc1 (racemic)", "Estrogen receptor beta (Homo sapiens)", 5.74),
    ("Cc1ccc(OS(=O)(=O)C2CC3OC2C(c2ccc(NC(=O)CCCCCCC(=O)NO)cc2)=C3c2ccc(O)cc2)cc1 (racemic)", "Estrogen receptor beta (Homo sapiens)", 7.42),
    ("O=C(O)CCCCCCC(=O)Nc1ccc(C2=C(c3ccc(O)cc3)C3CC(S(=O)(=O)Oc4ccccc4)C2O3)cc1 (racemic)", "Estrogen receptor beta (Homo sapiens)", 6.03),
    ("O=C(O)CCCCCCC(=O)Nc1ccc(C2=C(c3ccc(O)cc3)C3CC(S(=O)(=O)Oc4ccc(Cl)cc4)C2O3)cc1 (racemic)", "Estrogen receptor beta (Homo sapiens)", 6.24),
]

# next compound below
Problem: // returns reported pEC50 for input O=C(CCCCCCC(=O)Nc1ccc(C2=C(c3ccc(O)cc3)C3CC(S(=O)(=O)Oc4ccccc4)C2O3)cc1)NO (racemic)
Solution: 8.70

###

Target: Protein deacetylase HDAC6 (Homo sapiens, UniProt Q9UBN7)
Sequence (Q9UBN7 whole entry): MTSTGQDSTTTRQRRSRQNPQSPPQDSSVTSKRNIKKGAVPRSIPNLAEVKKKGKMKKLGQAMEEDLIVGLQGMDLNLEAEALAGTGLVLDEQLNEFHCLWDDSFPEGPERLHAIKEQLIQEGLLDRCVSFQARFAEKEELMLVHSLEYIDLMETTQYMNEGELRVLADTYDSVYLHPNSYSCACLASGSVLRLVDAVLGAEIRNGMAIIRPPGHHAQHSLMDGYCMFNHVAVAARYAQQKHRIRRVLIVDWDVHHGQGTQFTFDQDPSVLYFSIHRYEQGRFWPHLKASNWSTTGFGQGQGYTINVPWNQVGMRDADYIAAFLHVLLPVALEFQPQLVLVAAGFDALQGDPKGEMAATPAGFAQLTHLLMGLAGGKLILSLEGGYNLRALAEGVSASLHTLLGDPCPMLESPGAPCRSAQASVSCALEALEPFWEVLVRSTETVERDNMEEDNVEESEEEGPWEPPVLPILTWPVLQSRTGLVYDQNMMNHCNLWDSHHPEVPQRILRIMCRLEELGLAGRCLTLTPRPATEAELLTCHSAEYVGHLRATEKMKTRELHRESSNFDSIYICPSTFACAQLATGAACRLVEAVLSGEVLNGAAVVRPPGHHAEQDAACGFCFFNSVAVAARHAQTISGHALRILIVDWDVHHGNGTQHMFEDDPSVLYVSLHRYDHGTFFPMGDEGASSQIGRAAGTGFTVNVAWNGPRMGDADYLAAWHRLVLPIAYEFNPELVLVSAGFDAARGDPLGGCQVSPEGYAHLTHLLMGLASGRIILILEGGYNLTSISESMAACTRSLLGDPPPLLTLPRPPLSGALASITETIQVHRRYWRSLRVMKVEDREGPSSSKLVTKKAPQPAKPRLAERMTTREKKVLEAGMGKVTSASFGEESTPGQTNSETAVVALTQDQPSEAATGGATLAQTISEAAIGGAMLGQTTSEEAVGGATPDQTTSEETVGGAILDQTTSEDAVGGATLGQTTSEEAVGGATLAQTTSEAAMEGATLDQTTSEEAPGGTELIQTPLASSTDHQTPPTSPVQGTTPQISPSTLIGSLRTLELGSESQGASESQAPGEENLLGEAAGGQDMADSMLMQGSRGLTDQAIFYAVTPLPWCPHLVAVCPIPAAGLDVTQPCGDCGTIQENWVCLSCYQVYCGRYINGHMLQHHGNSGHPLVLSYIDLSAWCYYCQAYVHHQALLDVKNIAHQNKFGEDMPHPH
Assay: Inhibition of human recombinant HDAC6 after 15 mins by fluorogenic assay
Conditions: read-out: IC50
endpoint-label: IC50 (µM)
Value expressed in µM; do not type the unit.

Consider the worked cases shown below.
# compound, endpoint-label, readout-unit, recorded-result
measured = [
    ("O=C(CCCCCCC(=O)Nc1ccc(OS(=O)(=O)C2CC3OC2C(c2ccc(O)cc2)=C3c2ccc(O)cc2)cc1)NO (centres undefined)", "IC50", "µM", 0.189),
    ("O=C(O)CCCCCCC(=O)Nc1ccc(C2=C(c3ccc(O)cc3)C3CC(S(=O)(=O)Oc4ccc5ccccc5c4)C2O3)cc1 (centres undefined)", "IC50", "µM", 8.11),
    ("Cc1ccccc1OS(=O)(=O)C1CC2OC1C(c1ccc(NC(=O)CCCCCCC(=O)O)cc1)=C2c1ccc(O)cc1 (racemic)", "IC50", "µM", 5.01),
]

# next compound below
Problem: // returns reported IC50 for input COC(=O)CCCCCCC(=O)Nc1ccc(OS(=O)(=O)C2CC3OC2C(c2ccc(O)cc2)=C3c2ccc(O)cc2)cc1 (centres undefined)
Solution: 1.58

Recorded values, source ChEMBL document CHEMBL3588800.
